The reported measurements were obtained from patent US8039501B2.

Assay: MTT test, cell viability of A549 cells
Assay type: cell-based, human
Conditions: human, A549 lung epithelial (carcinoma) cells; 10^−5 M; 48 hours; FIG. 6B; read-out: Block of A549 cell viability
outcomeMeasure: cytotoxicity at 48 h (%)
Provide the reading as a plain figure in %.

Asked: Quick one: cytotoxicity at 48 h of CN(CC(OC(=O)n1ccnc1)c1ccc(OC(=O)c2ccccc2)cc1)C(=O)OC(C)(C)C (stereo not shown) ?
Given back: 10

====

Experiment: MTT test, cell viability of A549 cells
Format: cell-based, human
Conditions: human, A549 lung epithelial (carcinoma) cells; 10^−5 M; 24 hours and 48 hours; FIGS. 6A and 6B; read-out: Block of A549 cell viability
outcomeMeasure: cytotoxicity

Asked: Quick one: cytotoxicity of CNCC(Cl)c1ccc(OC(C)=O)cc1.Cl (stereo not shown) [CpdA] ?
Given back: ≤ 10%

====

List of cytotoxicity at 48 h values.
Assay: MTT test, cell viability of L929sA fibroblasts
Type: cell-based, murine
Conditions: mouse, L929sA fibroblast cells; 10^−4 M; 48 hours; FIG. 5B; read-out: Block of L929sA cell viability
Provide the reading as a plain figure in %.

{"molecule": "C[C@@H]1C[C@H]2[C@@H]3CCC4=CC(=O)C=C[C@]4(C)[C@@]3(F)[C@@H](O)C[C@]2(C)[C@@]1(O)C(=O)CO [DEX, dexamethasone, reference compound]", "numericReadout": 30}

Now take the following molecule into account.
Asked: Quick one: cytotoxicity at 48 h of CNCC(Cl)c1ccc(OC(C)=O)cc1.Cl (centres unmarked) [CpdA] ?
Given back: 60

====

Test: MTT test, cell viability of L929sA fibroblasts
Format: cell-based, murine
Conditions: mouse, L929sA fibroblast cells; 10^−5 M; 24 hours and 48 hours; FIGS. 5A and 5B; read-out: Block of L929sA cell viability
outcomeMeasure: cytotoxicity

Asked: Quick one: cytotoxicity of CNCC(Cl)c1ccc(OC(C)=O)cc1.Cl (stereo not shown) ?
Given back: ≤ 10%

====

Experiment: MTT test, cell viability of L929sA fibroblasts
Assay type: cell-based, murine
Conditions: mouse, L929sA fibroblast cells; 10^−4 M; 24 hours; FIG. 5A; read-out: Block of L929sA cell viability
Method: The MTT test is a standard assay addressing cell toxicity of a compound. […] Different cell lines were tested. […] After overnight incubation at room temperature, the optical densities at 590 nm were measured. Results are illustrated in FIGS. 2 to 6 and are expressed as percentage of viable cells as compared to vehicle-treated controls. In a further MTT test, the activity of the synephrine derivatives on the inhibition of cell viability of non-immune cells was measured. […]
outcomeMeasure: cytotoxicity at 24 h (%)
Provide the reading as a plain figure in %.

Asked: Quick one: cytotoxicity at 24 h of CNCC(Cl)c1ccc(OC(C)=O)cc1.Cl (stereo not shown) ?
Given back: 20

====

Assay: MTT test, cell viability of A549 cells
Format: cell-based, human
Conditions: human, A549 lung epithelial (carcinoma) cells; 10^−4 M; 24 hours; FIG. 6A; read-out: Block of A549 cell viability
outcomeMeasure: cytotoxicity at 24 h (%)
Provide the reading as a plain figure in %.

Asked: Quick one: cytotoxicity at 24 h of CNCC(Cl)c1ccc(OC(C)=O)cc1.Cl (stereo not shown) ?
Given back: 20

====

Test: MTT test, cell viability of A549 cells
Type: cell-based, human
Conditions: human, A549 lung epithelial (carcinoma) cells; 10^−4 M; 48 hours; FIG. 6B; read-out: Block of A549 cell viability
outcomeMeasure: cytotoxicity at 48 h (%)
Provide the reading as a plain figure in %.

Asked: Quick one: cytotoxicity at 48 h of CNCC(Cl)c1ccc(OC(C)=O)cc1.Cl (stereo not shown) ?
Given back: 40
